System: SKUT-1
Test: 72-h MTT cytotoxicity assay SKUT-1
Type: cell-based
Settings: Homo sapiens, SK-UT-1, 72 h; Table 5; Leiomyosarcoma
Procedure: MTT cytotoxicity assay. […] Standard 72-h MTT (thiazolyl blue; 3-[4,5-dimethylthiazol-2-yl]-2,5-diphenyltetrazolium bromide) assays were performed (Haselsberger, K.; Peterson, D. C.; Thomas, D. G.; Darling, J. L. Anti Cancer Drugs 1996, 7, 331-8; Loveland, B. E.; Johns, T. G.; Mackay, I. R.; Vaillant, F.; Wang, Z. X.; Hertzog, P. J. Biochemistry International 1992, 27, 501-10). In short: cells were seeded into 96-well plates according to doubling time and incubated overnight at 37° C. […]
pIC50: −log10 of the molar value.
pIC50 values, listed per item
MEASURED_ENDPOINT: pIC50

1) Cc1nc(N)sc1-c1ccnc(Nc2ccc(N3CCOCC3)cc2)n1 [Compound 1] :: 6.05
2) Cc1nc(NC(=O)[C@H](N)[C@@H](C)O)sc1-c1ccnc(Nc2cccc([N+](=O)[O-])c2)n1 [Compound 15] :: 6.05
3) CC[C@@H](N)C(=O)Nc1nc(C)c(-c2ccnc(Nc3cccc([N+](=O)[O-])c3)n2)s1 [Compound 16] :: 6.70
4) CNc1nc(C)c(-c2ccnc(Nc3ccc(N4CCN(Cc5ccccc5)CC4)cc3)n2)s1 [Compound 11] :: 6.10

###

biological target: CDK1/cyclin B (Homo sapiens); assay: Kinase assay CDK1/cyclin B; type: biochemical; details: Table 2; read-out: Kinase Inhibition IC50 CDK1 cyclin B
Sequence (P06493 whole entry): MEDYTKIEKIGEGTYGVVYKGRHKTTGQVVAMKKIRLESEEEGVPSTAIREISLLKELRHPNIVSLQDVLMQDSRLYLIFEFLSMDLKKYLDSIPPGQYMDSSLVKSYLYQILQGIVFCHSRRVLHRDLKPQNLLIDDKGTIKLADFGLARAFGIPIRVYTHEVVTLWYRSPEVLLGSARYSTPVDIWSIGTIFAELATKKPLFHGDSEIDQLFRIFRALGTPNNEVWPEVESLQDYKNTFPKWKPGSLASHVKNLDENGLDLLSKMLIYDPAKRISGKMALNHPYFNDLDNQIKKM
Sequence (P14635 whole entry partner): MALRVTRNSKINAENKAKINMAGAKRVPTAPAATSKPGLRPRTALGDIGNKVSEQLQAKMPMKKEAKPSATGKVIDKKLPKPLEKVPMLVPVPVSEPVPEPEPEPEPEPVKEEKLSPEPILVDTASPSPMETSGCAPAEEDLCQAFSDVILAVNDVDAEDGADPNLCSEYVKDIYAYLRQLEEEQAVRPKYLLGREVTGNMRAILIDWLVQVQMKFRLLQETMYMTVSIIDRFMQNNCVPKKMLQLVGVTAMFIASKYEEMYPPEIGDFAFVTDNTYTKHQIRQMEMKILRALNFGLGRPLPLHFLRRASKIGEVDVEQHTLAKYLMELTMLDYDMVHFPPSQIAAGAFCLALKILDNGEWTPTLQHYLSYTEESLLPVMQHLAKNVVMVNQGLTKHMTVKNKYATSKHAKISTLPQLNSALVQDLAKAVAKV
IC50 less than 0.9 µM is fulfilled; IC50 greater than or equal to 0.9 µM is not fulfilled.

1. Cc1nc(C)c(-c2ccnc(Nc3ccc(N4CCN(CCOCCO)CC4)cc3)n2)s1 :: not fulfilled
2. Cc1nc(C)c(-c2ccnc(Nc3ccc(S(C)(=O)=O)cc3)n2)s1 :: fulfilled
3. Cc1nc(N)sc1-c1ccnc(Nc2cccc(S(C)(=O)=O)c2)n1 :: fulfilled
4. Cc1nc(N2CCOCC2)sc1-c1ccnc(Nc2ccc(N(C)C)cc2)n1 :: not fulfilled
5. COc1cccc(Nc2nccc(-c3sc(NC(=O)CCN4CCOCC4)nc3C)n2)c1 :: not fulfilled
6. Cc1nc(NC(=O)CCN2CCOCC2)sc1-c1ccnc(Nc2ccc(Cl)cc2)n1 :: not fulfilled
7. CNc1nc(C)c(-c2ccnc(Nc3ccc(Cl)c(CO)c3)n2)s1 :: not fulfilled
8. Cc1nc(NC(=O)CNCCOCCO)sc1-c1ccnc(Nc2ccc(N(C)C)cc2)n1 :: fulfilled
9. CCNc1nc(C)c(-c2ccnc(Nc3cccc(CNC(C)=O)c3)n2)s1 :: fulfilled
10. CNc1nc(C)c(-c2ccnc(Nc3ccc(OCCOC)c([N+](=O)[O-])c3)n2)s1 :: not fulfilled
11. Cc1nc(NC(=O)CCN2CCOCC2)sc1-c1ccnc(Nc2ccc(F)cc2)n1 :: fulfilled
12. CNc1nc(C)c(-c2ccnc(Nc3ccc(N4CCN(C(C)=O)CC4)cc3)n2)s1 :: not fulfilled
13. Cc1nc(N2CCOCC2)sc1-c1ccnc(Nc2ccc(N3CCOCC3)cc2)n1 :: not fulfilled
14. Cc1nc(C)c(-c2ccnc(Nc3ccc(NC(=O)Cn4cncn4)cc3)n2)s1 :: not fulfilled

###

pIC50 values, listed per item
biological target: CDK2/cyclin E (Homo sapiens, UniProt P24941); experiment: Kinase assay CDK2/cyclin E; assay type: biochemical; conditions: Table 2; read-out: Kinase Inhibition IC50 CDK2 cyclin E
pIC50: −log10 of the molar value.
MEASURED_ENDPOINT: pIC50

1) CNc1nc(C)c(-c2ccnc(Nc3ccc(Cl)c(CO)c3)n2)s1 [Compound 73] :: 6.00
2) Cc1nc(N)sc1-c1ccnc(Nc2cccc(S(C)(=O)=O)c2)n1 [Compound 84] :: 7.12
3) CNc1nc(C)c(-c2ccnc(Nc3cccc(CO)c3)n2)s1 [Compound 91] :: 6.96
4) CNc1nc(C)c(-c2ccnc(Nc3ccc(CCO)cc3)n2)s1 [Compound 59] :: 6.85
5) Cc1nc(NC(=O)CCCN)sc1-c1ccnc(Nc2cccc([N+](=O)[O-])c2)n1 [Compound 18] :: 6.74
6) Cc1nc(NC(=O)CCN2CCOCC2)sc1-c1ccnc(Nc2cccc([N+](=O)[O-])c2)n1 [Compound 22] :: 8.60
7) CCNc1nc(C)c(-c2ccnc(Nc3cccc(CN)c3)n2)s1 [Compound 65] :: 6.48
8) Cc1nc(C)c(-c2ccnc(Nc3ccc(NC(=O)CCl)cc3)n2)s1 [Compound 50] :: 6.41
9) Cc1nc(NC(=O)[C@@H](N)CO)sc1-c1ccnc(Nc2cccc([N+](=O)[O-])c2)n1 [Compound 14] :: 7.17

###

molecular target: CDK1/cyclin B (Homo sapiens); assay: Kinase assay CDK1/cyclin B; type: biochemical; details: Table 2; read-out: Kinase Inhibition IC50 CDK1 cyclin B
MEASURED_ENDPOINT: log10(IC50) (log10 of the value in nM)

1) CC(=O)N(C)c1ccc(Nc2nccc(-c3sc(C)nc3C)n2)cc1 :: 4.08
2) Cc1nc(NC(=O)CCN2CCN(C)CC2)sc1-c1ccnc(Nc2cccc([N+](=O)[O-])c2)n1 :: 3.49
3) CNc1nc(C)c(-c2ccnc(Nc3cccc(CNC(C)=O)c3)n2)s1 :: 4.68
4) Cc1nc(N)sc1-c1ccnc(Nc2ccc(S(C)(=O)=O)cc2)n1 :: 3.26
5) CC(=O)NCc1cccc(Nc2nccc(-c3sc(C)nc3C)n2)c1 :: 2.08
6) Cc1nc(N2CCOCC2)sc1-c1ccnc(Nc2cccc([N+](=O)[O-])c2)n1 :: 2.52
7) CNc1nc(C)c(-c2ccnc(Nc3cccc(CNS(C)(=O)=O)c3)n2)s1 :: 2.68
8) CNc1nc(C)c(-c2ccnc(Nc3cccc(CNS(=O)(=O)C(F)(F)F)c3)n2)s1 :: 3.43

###

target: CDK9/cyclin T1 (Homo sapiens, UniProt P50750); assay: CDK9 assay; type: biochemical; settings: Table 2; read-out: Kinase Inhibition IC50 CDK9 cyclin T1
Sequence (P50750 whole entry): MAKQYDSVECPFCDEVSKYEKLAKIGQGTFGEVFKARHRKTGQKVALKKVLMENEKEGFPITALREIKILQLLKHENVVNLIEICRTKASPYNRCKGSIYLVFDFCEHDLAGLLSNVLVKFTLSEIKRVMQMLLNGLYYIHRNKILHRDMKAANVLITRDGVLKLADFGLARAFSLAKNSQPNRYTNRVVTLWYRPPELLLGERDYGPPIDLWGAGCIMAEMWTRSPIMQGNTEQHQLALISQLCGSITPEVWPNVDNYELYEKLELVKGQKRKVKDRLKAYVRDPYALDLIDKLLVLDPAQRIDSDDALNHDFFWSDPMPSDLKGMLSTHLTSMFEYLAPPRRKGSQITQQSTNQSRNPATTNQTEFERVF
Sequence (O60563 whole entry partner): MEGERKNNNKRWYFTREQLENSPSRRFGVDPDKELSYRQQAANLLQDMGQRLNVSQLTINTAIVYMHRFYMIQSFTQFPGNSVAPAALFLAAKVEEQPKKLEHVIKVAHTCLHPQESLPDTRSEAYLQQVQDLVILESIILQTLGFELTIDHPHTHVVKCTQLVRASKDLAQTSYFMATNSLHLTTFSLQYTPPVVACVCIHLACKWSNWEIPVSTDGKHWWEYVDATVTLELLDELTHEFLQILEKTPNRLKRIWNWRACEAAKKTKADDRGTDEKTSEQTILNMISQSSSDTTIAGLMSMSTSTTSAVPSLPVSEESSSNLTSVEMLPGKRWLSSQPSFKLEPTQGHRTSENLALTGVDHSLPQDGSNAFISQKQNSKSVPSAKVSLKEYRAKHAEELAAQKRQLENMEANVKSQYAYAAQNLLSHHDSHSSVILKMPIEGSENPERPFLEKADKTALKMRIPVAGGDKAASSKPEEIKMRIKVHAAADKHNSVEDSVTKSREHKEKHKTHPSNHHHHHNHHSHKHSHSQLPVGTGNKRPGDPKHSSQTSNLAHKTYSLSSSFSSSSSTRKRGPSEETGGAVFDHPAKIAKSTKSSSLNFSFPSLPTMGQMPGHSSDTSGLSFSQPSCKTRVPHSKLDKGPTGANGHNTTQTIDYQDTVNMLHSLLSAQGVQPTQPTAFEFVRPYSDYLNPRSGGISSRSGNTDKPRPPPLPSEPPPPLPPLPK
pIC50: −log10 of the molar value.
MEASURED_ENDPOINT: pIC50

1) Cc1c(-c2ccnc(Nc3ccc(N4CCN(C)CC4)cc3)n2)sc(=O)n1C :: 6.52
2) CNc1nc(C)c(-c2ccnc(Nc3ccc(Cl)c(CO)c3)n2)s1 :: 6.26
3) Cc1nc(NC(=O)[C@H](N)[C@@H](C)O)sc1-c1ccnc(Nc2cccc([N+](=O)[O-])c2)n1 :: 7.15
4) Cc1nc(NC(=O)CCBr)sc1-c1ccnc(Nc2ccc(F)cc2)n1 :: 7.43

###

molecular target: CDK4/cyclin D1 (Homo sapiens); experiment: Kinase assay CDK4/cyclin D1; type: biochemical; details: Table 2; read-out: Kinase Inhibition IC50 CDK4 cyclin D1
Sequence (P11802 whole entry): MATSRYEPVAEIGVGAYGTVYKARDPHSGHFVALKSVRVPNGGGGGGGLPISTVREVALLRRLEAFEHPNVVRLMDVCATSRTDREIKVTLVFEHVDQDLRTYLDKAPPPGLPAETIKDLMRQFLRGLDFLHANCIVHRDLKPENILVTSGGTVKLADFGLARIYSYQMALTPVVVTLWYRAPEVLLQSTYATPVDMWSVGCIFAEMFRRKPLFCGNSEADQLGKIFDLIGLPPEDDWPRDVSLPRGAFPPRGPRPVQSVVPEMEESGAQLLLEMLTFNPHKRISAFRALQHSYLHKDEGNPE
Sequence (P24385 whole entry partner): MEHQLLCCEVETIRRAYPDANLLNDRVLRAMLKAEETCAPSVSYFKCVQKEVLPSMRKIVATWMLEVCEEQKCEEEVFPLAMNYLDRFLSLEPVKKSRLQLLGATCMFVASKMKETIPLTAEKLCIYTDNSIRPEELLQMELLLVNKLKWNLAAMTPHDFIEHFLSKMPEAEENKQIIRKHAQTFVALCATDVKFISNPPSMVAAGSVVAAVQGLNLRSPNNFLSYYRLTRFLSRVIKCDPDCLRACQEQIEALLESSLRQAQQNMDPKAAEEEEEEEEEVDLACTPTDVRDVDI
IC50 less than 2000 nM is Y; IC50 greater than or equal to 2000 nM is N.

1) Cc1nc(NS(C)(=O)=O)sc1-c1ccnc(Nc2ccc(F)cc2)n1 :: N
2) Cc1nc(NC(=O)CCN)sc1-c1ccnc(Nc2cccc([N+](=O)[O-])c2)n1 :: Y
3) CCNc1nc(C)c(-c2ccnc(Nc3cccc(CNC(C)=O)c3)n2)s1 :: Y
4) Cc1nc(N2CCOCC2)sc1-c1ccnc(Nc2ccc(N(C)C)cc2)n1 :: Y
5) Cc1nc(NC(=O)CCN2CCN(C)CC2)sc1-c1ccnc(Nc2cccc([N+](=O)[O-])c2)n1 :: N
6) Cc1nc(C)c(-c2ccnc(Nc3ccc(NC(=O)CN4CCOCC4)cc3)n2)s1 :: Y
7) Cc1nc(NC(=O)CCl)sc1-c1ccnc(Nc2cccc(Cl)c2)n1 :: Y

###

Target or system UniProt:P23443; recorded quantity IC50.
Sequence (P23443 91-352 limits assumed): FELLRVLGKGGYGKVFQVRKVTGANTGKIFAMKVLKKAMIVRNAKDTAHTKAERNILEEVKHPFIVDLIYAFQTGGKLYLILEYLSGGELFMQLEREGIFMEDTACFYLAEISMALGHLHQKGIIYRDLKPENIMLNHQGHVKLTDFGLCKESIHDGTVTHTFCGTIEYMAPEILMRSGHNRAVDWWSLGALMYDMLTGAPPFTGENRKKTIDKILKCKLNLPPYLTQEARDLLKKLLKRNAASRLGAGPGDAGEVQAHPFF
MEASURED_ENDPOINT: IC50 (µM)

1) CC[C@@H](N)C(=O)Nc1nc(C)c(-c2ccnc(Nc3cccc([N+](=O)[O-])c3)n2)s1 [Compound 16] :: 8
2) CNc1nc(C)c(-c2ccnc(Nc3ccc(N4CCOCC4)cc3)n2)s1 [Compound 3] :: 2.6

###

pIC50 values, listed per item
target: CDK2/cyclin E (Homo sapiens, UniProt P24941); assay: Kinase assay CDK2/cyclin E; assay type: biochemical; conditions: Table 2; read-out: Kinase Inhibition IC50 CDK2 cyclin E
pIC50: −log10 of the molar value.
MEASURED_ENDPOINT: pIC50

1) Cc1nc(NC(=O)CCl)sc1-c1ccnc(Nc2cccc(Cl)c2)n1 :: 6.66
2) Cc1nc(NC(=O)CCN2CCOCC2)sc1-c1ccnc(Nc2ccc(F)cc2)n1 :: 7.01
3) Cc1nc(NC(=O)[C@@H](N)[C@H](C)O)sc1-c1ccnc(Nc2cccc([N+](=O)[O-])c2)n1 :: 6.68
4) Cc1c(-c2ccnc(Nc3ccc(N4CCN(C)CC4)cc3)n2)sc(=O)n1C :: 6.08
5) Cc1nc(C)c(-c2ccnc(Nc3ccc(N4CCN(CCCO)CC4)cc3)n2)s1 :: 5.92
6) Cc1nc(N2CCOCC2)sc1-c1ccnc(Nc2cccc(O)c2)n1 :: 7.10
7) Cc1nc(C)c(-c2ccnc(Nc3ccc(NC(=O)Cn4ccnc4)cc3)n2)s1 :: 7.01
8) Cc1nc(NC(=O)CCNCCN2CCOCC2)sc1-c1ccnc(Nc2ccc(Cl)cc2)n1 :: 5.10
9) CNc1nc(C)c(-c2ccnc(Nc3cccc(CN)c3)n2)s1 :: 6.38
